Tested target: Laj2 (cytochrome P450)
Construct: His6-tagged Laj2 (405 aa), expressed in E. coli
Measurement protocol: UV-vis difference spectral titration (type I binding spectra), one-site fit; nitration turnover also shown by LC-MS
pKd: −log10 of the molar value.
Measured endpoint: pKd

The recorded pKd with Laj2 (cytochrome P450) for C/C=C(C)/C=C/C=C\C=C(\C)C(O)C(C)(C)C(=O)NC/C=C/C=C/C(O)C(C)CC(OC)C1(O)C(C)C(=O)N(C)C12COC2=O (stereo not shown) was ~4.22
